Source of measurements: ChEMBL document CHEMBL5331134

Assay: Drug concentration in C57BL/6 mouse brain at 3 mg/kg, po measured after 3 hrs
Assay type: ADME, organism-based
Settings: read-out: Ct
ENDPOINT LABEL: concentration at 3 h (nM)
// units = nM; emit number, no label

Per the record, "C[C@@H]1COCCN1c1cc(N2CCOC[C@@H]2C)nc2[nH]c(-c3cscn3)nc12" has concentration at 3 h of 930

----------
Assay: Efflux ratio of apparent permeability across basolateral to apical side over apical to basolateral side in MDCK-MDR1 cells
Assay type: ADME, cell-based, Canis lupus familiaris
Details: dog
Please note: efflux ratio exactly at 0.7 is FALSE. Only values below 0.7 get TRUE.

Below are worked cases with known answers.
C[C@@H]1COCCN1c1cc(N2CCOC[C@@H]2C)nc2[nH]c(-c3nccs3)nc12 TRUE
C[C@@H]1COCCN1c1cc(N2C3CCC2COC3)nc2[nH]c(-c3ccccn3)nc12 FALSE
C[C@@H]1COCCN1c1cc(N2CCOC[C@@H]2C)nc2[nH]c(-c3cscn3)nc12 FALSE
C[C@@H]1COCCN1c1cc(N2CCOC[C@@H]2C)nc2[nH]c(-c3cc[nH]n3)nc12 FALSE

In: is_below(efflux ratio, 0.7) for "C[C@@H]1COCCN1c1cc(N2CCOC[C@@H]2C)nc2[nH]c(-c3cc(O)ccc3F)nc12" ?
Out: TRUE

In: is_below(efflux ratio, 0.7) for "C[C@@H]1COCCN1c1cc(N2CCOC[C@@H]2C)nc2[nH]c(-c3ccccn3)nc12" ?
Out: TRUE

----------
Assay: Drug concentration in C57BL/6 mouse brain at 1 mg/kg, po measured after 1 hr
Assay type: ADME, organism-based
Settings: read-out: Ct
ENDPOINT LABEL: concentration at 1 h (nM)
// units = nM; emit number, no label

Per the record, "C[C@@H]1COCCN1c1cc(N2CCOC[C@@H]2C)nc2[nH]c(-c3cscn3)nc12" has concentration at 1 h of 388

----------
Test: Tmax in cynomolgus monkey at 0.3 mg/kg, po measured upto 24 hrs by LC/MS/MS analysis
Format: ADME, organism-based, Macaca fascicularis
Conditions: in vivo
ENDPOINT LABEL: Tmax (h)
// units = h; emit number, no label

Per the record, "C[C@@H]1COCCN1c1cc(N2CCOC[C@@H]2C)nc2[nH]c(-c3ccccn3)nc12" has Tmax of 1.2

----------
AUC(0-t) at 24 h by entry:
Assay: AUC(0 to t) in Sprague-Dawley rat at 3 mg/kg, po measured upto 24 hrs by HPLC-MS analysis
Format: ADME, organism-based
Design: dose 3 mg/kg, time < 24 hrs, route po
Conditions: in vivo
// units = µM·h; emit number, no label

C[C@@H]1COCCN1c1cc(N2CCOC[C@@H]2C)nc2[nH]c(-c3cscn3)nc12 6.45

For the next question, use this molecule.
Per the record, "C[C@@H]1COCCN1c1cc(N2CCOC[C@@H]2C)nc2[nH]c(-c3ccccn3)nc12" has AUC(0-t) at 24 h of 29.6

----------
Test: Drug concentration in C57BL/6 mouse plasma at 30 mg/kg, po measured after 24 hrs
Type: ADME, organism-based
ENDPOINT LABEL: concentration at 24 h (µM)
// units = µM; emit number, no label

C[C@@H]1COCCN1c1cc(N2CCOC[C@@H]2C)nc2[nH]c(-c3cscn3)nc12 7.02

For the next question, use this molecule.
Per the record, "C[C@@H]1COCCN1c1cc(N2CCOC[C@@H]2C)nc2[nH]c(-c3ccccn3)nc12" has concentration at 24 h of 1.12
